# System: OVCAR-8 ovarian
# protocol summary: NCI-60 one-dose screen, 48 h
# assay setup: 10 µM unless noted
About 83,000 compounds went through this panel and 20% of them were active in at least one assay; those are over-represented in the sample as a whole. Activity calls are given as the source filed them. The calls were made as follows: active = growth percent below 10; inactive = the rest.
A correct response names exactly one class from active, inactive

Before answering, review these 10 worked examples.
compound: CNC(=O)c1cc(-n2ccc3cc(NC(=O)c4ccc(N5CCOCC5)c(C(F)(F)F)c4)ccc32)ccn1
group: inactive
--
compound: COc1ccc([C@H]2c3cc(OC)c(OC)cc3C=C(C=O)C2CO)cc1OC (stereo not given in full)
group: inactive
--
compound: Oc1ccc(Cl)cc1Cc1cc(Cl)cc(Cl)c1O
group: inactive
--
compound: CC1CN(C2CCCCC2)C(=S)N(c2ccccc2)C1=O (stereo not given)
group: inactive
--
compound: Cc1ccc(C2CC(c3ccc(Nc4ccnc5cc(Cl)ccc45)cc3)=NN2C=O)cc1 (stereo not given)
group: inactive
--
compound: CCN(CC)S(=O)(=O)c1ccc(NC(=O)CSc2nnc(C)n2-c2ccccc2)cc1
group: inactive
--
compound: Clc1ccc(C(/C=C/c2sc(Cl)nc2Cl)=N/Nc2cc(Cl)cc(Cl)c2)cc1
group: inactive
--
compound: COc1cc2cc(Oc3ccc(NC(=O)Nc4ccc(Cl)c(Cl)c4)cc3)c(C)nc2cc1OCCN1CCOCC1
group: inactive
--
compound: COc1c(B(O)O)cc(C)cc1-c1nc2ccc3[nH]ncc3c2c2c1CCCC2
group: inactive
--
compound: CCCCn1c(=O)c(-c2cc(-c3ccc(Cl)cc3)nc(-c3ccc(Cl)cc3)c2)cc2cc(Cl)ccc21
group: inactive

Prompt line: // param item: COC(=O)Nc1ccc(-c2nc(-c3cccc(OC)c3)c(-c3ccnc(Br)c3)[nH]2)cc1 ; yields the recorded call
Response line: inactive
